Examples of compounds with documented IC50 follow.
Organism: Rattus norvegicus
assay-remarks: The compound was tested for anti-KA-Induced Neurotoxicity in rat primary hippocampal cultures.
Type: functional
experimental-context: Hippocampus
Please give a number only; it is taken to be in nM.

Example results:
Request: Value lookup for IC50; key = `O=[N+]([O-])c1cc2nc(O)c3nccn3c2cc1-n1ccnc1`
Result: 300

Request: Value lookup for IC50; key = NS(=O)(=O)c1cccc2c1c([N+](=O)[O-])cc1nc(O)c(O)nc12 [NBQX]
Result: 380

Request: Value lookup for IC50; key = `Oc1nc2cc(C(F)(F)F)c(-n3ccnc3)cc2n2ccnc12`
Result: 320

Field: next compound
Request: Value lookup for IC50; key = O=c1[nH]c2cc(-n3ccnc3)c([N+](=O)[O-])cc2[nH]c1=O [YM-90K]
Result: 810

====

Organism: Rattus norvegicus
assay-remarks: The compound was tested for anti-KA-Induced Neurotoxicity in rat primary hippocampal cultures
Format: functional
experimental-context: Hippocampus
readout-label: IC50 (nM)
Please give a number only; it is taken to be in nM.

Request: Value lookup for IC50; key = `O=c1[nH]c2cc([N+](=O)[O-])c(-n3ccnc3)cc2n(O)c1=O`
Result: 310

====

system-tested: Glutamate receptor ionotropic, AMPA (Rattus norvegicus, UniProt P19490+P19491+P19492+P19493)
assay-remarks: The compound was tested for its ability to inhibit [3H]AMPA binding to Ionotropic glutamate receptor AMPA from rat whole brain
Examples of compounds with documented pKi follow.
To interpret pKi, take it as minus log10 of a concentration measured in moles per litre.

Request: Value lookup for pKi; key = `CCCCc1nnc2c(O)nc3cc([N+](=O)[O-])c(-n4ccnc4)cc3n12`
Result: 7.15

Field: next compound
Request: Value lookup for pKi; key = `CCCc1nnc2c(O)nc3cc([N+](=O)[O-])c(-n4ccnc4)cc3n12`
Result: 7.00

====

Examples of compounds with documented Ki follow.
system-tested: Glutamate receptor ionotropic, AMPA (Rattus norvegicus, UniProt P19490+P19491+P19492+P19493)
assay-remarks: Inhibition of [3H]AMPA binding to Ionotropic glutamate receptor from rat whole brain.

Example results:
Request: Value lookup for Ki; key = `Cc1nnc2c(O)nc3cc([N+](=O)[O-])c(-n4ccnc4)cc3n12`
Result: 96 nM

Request: Value lookup for Ki; key = `CCCn1c(=O)c(=O)[nH]c2cc([N+](=O)[O-])c(-n3ccnc3)cc21`
Result: 130 nM

Continuing:
Request: Value lookup for Ki; key = `O=[N+]([O-])c1cc2nc(O)c3nccn3c2cc1-n1ccnc1`
Result: 57 nM

Request: Value lookup for Ki; key = `CCCc1nnc2c(O)nc3cc(-n4ccnc4)c([N+](=O)[O-])cc3n12`
Result: 6600 nM

Request: Value lookup for Ki; key = `O=[N+]([O-])c1cc2nc(O)c3nncn3c2cc1-n1ccnc1`
Result: 190 nM

Request: Value lookup for Ki; key = `CCc1cnc2c(O)nc3cc([N+](=O)[O-])c(-n4ccnc4)cc3n12`
Result: 20 nM

Request: Value lookup for Ki; key = `Oc1nc2cc(C(F)(F)F)c(-n3ccnc3)cc2n2ccnc12`
Result: 66 nM

====

system-tested: Glutamate NMDA receptor
assay-remarks: The compound was tested for its ability to inhibit [3H]Gly binding to N-methyl-D-aspartate glutamate receptor from rat whole brain
readout-label: pKi
To interpret pKi, take it as minus log10 of a concentration measured in moles per litre.

Request: Value lookup for pKi; key = `O=c1[nH]c2cc([N+](=O)[O-])c(-n3ccnc3)cc2n(O)c1=O`
Result: 5.38
